Cited source for all entries: ChEMBL document CHEMBL1201862

System: SK-OV-3
Test: NCI tumour cell line growth inhibition, 48 h
Active and inactive are the calls of the source. No stated cut-off is given here; in the data, active = GI50 up to about 1.1 µM and inactive = higher.
Could you please pick one outcome from this set? 1 for active, 0 for inactive

Use the examples below as a reference point.
1) CSC(C1c2ccccc2N(c2ccc(C)cc2)C2=NC(=O)N(C)C(=O)C21Cl)S(=O)(=O)c1ccc(C)cc1 (stereo not drawn): 0
2) CC1CC[C@@]2(OC1)OC1C[C@H]3[C@@H]4CC[C@H]5CC(OC6OC(CO)C(O)C(OC7OC(CO)C(OC8OC(CO)C(O)C(OC9OC(CO)C(O)C(O)C9O)C8OC8OC(CO)C(O)C(O)C8O)C(O)C7O)C6O)[C@H](O)CC5(C)[C@H]4CCC3(C)C1[C@@H]2C (stereo partly drawn): 0
3) COc1cc2c(/C=C3/C(=O)Nc4ccccc43)c(Cl)n(Cc3ccc(Cl)cc3)c2cc1C: 1

## Task So what was the verdict on `CC1(C)OC(=O)CC12CCN(Cc1ccccc1)CC2` in this test?
## Result 0

## Task So what was the verdict on CCCCN1C(=O)N(c2ccc(OCC)cc2)C2N(CCCC)C1C(C)(C)C2(C)C (stereo not drawn) in this test?
## Result 0

## Task So what was the verdict on `CN(Cc1cccc2ccsc12)/N=C\c1ccc(Cl)cc1` in this test?
## Result 0

## Task So what was the verdict on c1ccc(P(CCP(CCP(c2ccccc2)c2ccccc2)c2ccccc2)CCP(c2ccccc2)c2ccccc2)cc1 (stereo not drawn) in this test?
## Result 0

## Task So what was the verdict on `COc1ccccc1C(=O)c1c(N2CCCCC2)c(=O)c1=O` in this test?
## Result 0

* * *

Could you please report measured GI50 for the items listed next?
System: SK-OV-3
Assay: NCI tumour cell line growth inhibition, 48 h
Activity calls are given as the source filed them. Cut-off read from the data, not from the text of the source: active = GI50 up to about 1.1 µM and inactive = higher.

Some compounds with known GI50 results, for comparison:
1) CCOC(=O)/C(=N\Nc1ccc(-n2c(C)nc3ccccc3c2=O)cc1)C(C)=O: 74 µM (inactive)
2) CN(C)CCCc1cccc2[nH]c3c(c12)CN(C)CC3: > 100 µM (inactive)
3) c1ccc(NCCSc2nc3ccccc3s2)cc1: > 100 µM (inactive)

# batch: return GI50 for each of the 4 compounds below
1. CCOC(=O)c1c(N)nn2c1cc1cccccc12
2. CCc1ccc2nccc(NCCCN(C)C)c2c1[N+](=O)[O-]
3. CCCCNN
4. CC1=NN(C(=O)CC(=O)Nc2ccc(C)cc2)C(=O)C1/N=N\c1ccc(S(=O)(=O)c2ccc(/N=N/C3C(=O)N(C(=O)CC(=O)Nc4ccc(C)cc4)N=C3C)cc2)cc1 (stereo not given)

## Result
1. 26.8 µM (inactive)
2. > 100 µM (inactive)
3. > 100 µM (inactive)
4. 72.4 µM (inactive)

# batch: return GI50 for each of the 3 compounds below
1. N#CCc1ccc(C(C#N)/C(CCCC(=O)Nc2cccc([N+](=O)[O-])c2)=N\NC(=O)NN)cc1 (stereo not given)
2. C[C@]12OC[C@H](c3ccccc3)N1C(=O)C1[C@H]2CC12SCCS2 (stereo not given in full)
3. COC(=O)C(Cc1ccc2c(c1)OCO2)(NC(=O)c1ccccc1)P(=O)(OC)OC (stereo not given)

## Result
1. > 100 µM (inactive)
2. > 100 µM (inactive)
3. > 100 µM (inactive)

* * *

System: NCI-H226
Test: NCI tumour cell line growth inhibition, 48 h
The source made the active and inactive calls. No stated cut-off is given here; in the data, active = GI50 up to about 1.1 µM and inactive = higher.
Could you please report measured GI50 for the items listed next?

# batch: return GI50 for each of the 3 molecules below
1. Cc1cc(C)nc(NS(=O)(=O)c2ccc(Nc3c4ccccc4nc4c(C(=O)NCCN(C)C)cccc34)cc2)n1
2. Cc1cc(-c2nc3cc(O)ccc3s2)ccc1N
3. COc1cc(/C=C/C(=O)C2(C(=O)/C=C/c3cc(OC)c(OC)c(OC)c3)CCCCC2)cc(OC)c1OC

## Result
2.17 µM (inactive)
31.4 µM (inactive)
32.7 µM (inactive)

# batch: return GI50 for each of the 7 molecules below
1. COc1cc(C(=O)N(C(=S)OCc2ccccn2)c2ccccc2)cc(OC)c1OC
2. c1ccc2c(c1)CCc1c-2n(CCN2CCOCC2)c2ccccc12
3. CNc1ncnc2c1cnn2Cc1cn(COCC(O)CO)nn1 (stereo not given)
4. O=C1C2CC(Cl)C(SSC3CC4C(=O)N(SC(Cl)(Cl)C(Cl)Cl)C(=O)C4CC3Cl)CC2C(=O)N1SC(Cl)(Cl)C(Cl)Cl (stereo not given)
5. O=C1NC(=S)N(c2ccccc2)C1=O
6. O=[N+]([O-])c1cccc(/C=N/C23CC4CC(CC(C4)C2)C3)c1
7. Cc1cccc(NC(=O)CSc2nnc(Cc3ccccc3)o2)c1

## Result
1: 26.1 µM (inactive); 2: 52.6 µM (inactive); 3: > 100 µM (inactive); 4: 3.67 µM (inactive); 5: > 100 µM (inactive); 6: > 100 µM (inactive); 7: > 100 µM (inactive)

* * *

Test system: UACC-62
Experiment: NCI tumour cell line growth inhibition, 48 h
Active and inactive are the calls of the source. Rule as the data show it: active = GI50 up to about 1.1 µM and inactive = higher.
Could you please report measured GI50 for the items listed next?

Some compounds with known GI50 results, for comparison:
1) N=c1sc2ccccc2n1CC[S-].c1ccc2c(c1)sc1[n+]2CCS1: 14 µM (inactive)
2) COc1ccc2[nH]c3c(c2c1)CCc1ccccc1-3: > 100 µM (inactive)
3) Cc1nc2ccc(NC3OC(CO)C(O)C(O)C3O)cc2c(=O)n1-c1ccccc1 (centres undefined): > 100 µM (inactive)
4) Cc1ccc2c(c1)SC(c1cc3c(cc1Br)OCO3)S2 (centres undefined): > 31.6 µM (inactive)
5) COC(=O)C(Cc1ccc2c(c1)OCO2)(NC(=O)c1ccccc1)P(=O)(OC)OC (centres undefined): > 100 µM (inactive)
6) C(=N\Nc1ccc(-c2nc3ccccc3[nH]2)cc1)/c1c(-c2ccc(Cc3ccccc3)cc2)[nH]c2ccccc12: 7.69 µM (inactive)
7) CC(=O)c1cccc(NC(=O)/C(=N\NC(C)(C)C)c2c(O)c3ccccc3oc2=O)c1: > 100 µM (inactive)
8) O=C1C=C(Nc2cccnc2)c2ccccc2C1=O: 1.68 µM (inactive)

// moving on: another record for GI50
## Task Could you tell me which GI50 is on file for CC1=NN(C(=O)CC(=O)Nc2ccc(C)cc2)C(=O)C1/N=N\c1ccc(S(=O)(=O)c2ccc(/N=N/C3C(=O)N(C(=O)CC(=O)Nc4ccc(C)cc4)N=C3C)cc2)cc1 (centres undefined) ?
## Result 65.9 µM (inactive)

* * *

Test system: UACC-257
Assay: NCI tumour cell line growth inhibition, 48 h
Active and inactive are the calls of the source. Rule as the data show it: active = GI50 up to about 1.1 µM and inactive = higher.
parameter_measured: GI50

1) O=C(Nc1cccc2cnccc12)c1cc2c(cc1Cl)Sc1nccn1S2(=O)=O: 18.1 µM (inactive)
2) O=C(N/C(=C\c1ccc(/C=C(\NC(=O)c2ccccc2)c2nc3ccccc3[nH]2)cc1)c1nc2ccccc2[nH]1)c1ccccc1: > 100 µM (inactive)
3) CC(=O)C(CN1CCCCC1)C(c1ccccc1)c1c(O)c2ccccc2oc1=O (centres undefined): > 100 µM (inactive)
4) O=C1/C(=C2\Sc3c(ccc(Cl)c3Cl)C2=O)Sc2c1ccc(Cl)c2Cl: > 100 µM (inactive)
5) CC1(C)CC(=O)c2c(nc3c(ccc4ccccc43)c2-c2ccc(NC(=O)CCCC(=O)Nc3ccc(-c4c5c(nc6c4ccc4ccccc46)CC(C)(C)CC5=O)cc3)cc2)C1: > 100 µM (inactive)

# batch: return GI50 for each of the 4 compounds below
1. CN(CC(=O)O)CC(=O)O
2. O=C(/C=C/c1ccccc1)NC1C=Nc2ccc([N+](=O)[O-])cc2NC1=O (centres undefined)
3. COc1cc(C2S/C(=C/c3ccccc3)C(=O)N2c2ccccc2Cl)cc(OC)c1OC (centres undefined)
4. O=S(=O)(N/N=C/c1ccc(Cl)cc1Cl)c1ccccc1

## Result
1. > 100 µM (inactive)
2. > 100 µM (inactive)
3. 45.5 µM (inactive)
4. > 100 µM (inactive)

* * *

Test system: MOLT-4
Assay: NCI tumour cell line growth inhibition, 48 h
The source made the active and inactive calls. Rule as the data show it: active = GI50 up to about 1.1 µM and inactive = higher.
Could you please pick one outcome from this set? active, inactive

Use the examples below as a reference point.
1) COc1cccc(CCNC(=O)Cc2ccccc2CCO)c1: inactive
2) CCSC1=CC2(O)N(CCc3ccc(OC)c(OC)c3)C(=O)CC2(C(=O)OC)CC1=O (centres undefined): inactive
3) Cc1cc2c([N+](=O)[O-])cc3c(c2o1)C(=O)C=CC3=O: active

## Task So what was the verdict on Cc1ccc(S(=O)(=O)OC2CS[S+]([O-])CC2OS(=O)(=O)c2ccc(C)cc2)cc1 (centres undefined) in this test?
## Result inactive

## Task So what was the verdict on `Brc1ccc(-c2[nH]c3ccccc3c2/N=N\c2ccccc2)cc1` in this test?
## Result inactive

## Task So what was the verdict on `Cc1ccc(S(=O)(=O)OCCN(CCOS(=O)(=O)c2ccc(C)cc2)c2ccc(C=O)cc2)cc1` in this test?
## Result inactive

## Task So what was the verdict on `CN(C)CCNc1nc2ccccc2c2c1C(=O)c1ccccc1-2` in this test?
## Result active

## Task So what was the verdict on c1ccc(P(CCP(CCP(c2ccccc2)c2ccccc2)c2ccccc2)CCP(c2ccccc2)c2ccccc2)cc1 (centres undefined) in this test?
## Result inactive

## Task So what was the verdict on `CC(C)(CO)CNc1cc(Cl)nc(N)n1` in this test?
## Result inactive

## Task So what was the verdict on `S=C(N1CCN(c2cccc(Cl)c2)CC1)N1CCN(c2cccc(Cl)c2)CC1` in this test?
## Result inactive

## Task So what was the verdict on O=C(Nc1cccc(C(F)(F)F)c1)c1cc(Br)cc(Br)c1O [FLUOROSALAN] in this test?
## Result inactive

## Task So what was the verdict on `Brc1ccccc1/C=N\C12CC3CC(CC(C3)C1)C2` in this test?
## Result inactive
